- assaySystem: human PD-1 (human, UniProt Q15116 25-288)
- Sequence (Q15116 25-288 limits assumed): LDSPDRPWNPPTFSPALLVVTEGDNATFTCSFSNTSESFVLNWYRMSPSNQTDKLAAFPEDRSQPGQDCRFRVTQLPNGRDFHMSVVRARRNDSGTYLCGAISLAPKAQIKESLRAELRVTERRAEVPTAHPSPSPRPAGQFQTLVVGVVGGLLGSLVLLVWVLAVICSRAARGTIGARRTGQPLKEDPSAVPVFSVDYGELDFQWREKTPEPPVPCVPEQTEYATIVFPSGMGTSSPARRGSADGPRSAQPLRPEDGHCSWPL
- protocolNotes: cell-based or functional assay
Please provide measured M07e-hPD-1 cell proliferation ratio (%) at 0.001 nM for the entries that follow.
Please state the value followed by its unit.

Quick batch: M07e-hPD-1 cell proliferation ratio (%) at 0.001 nM for everything below.
1. A-PC (Fc fusion, also called positive control molecule A-PC; PD-1-IL-2v; not shown: IgG1 hinge (C220S) + Fc Knob chain (L234A, L235A, S354C, T366W, EU); D356/L358 or E356/M358 ver; IgG1 hinge (C220S) + Fc Hole chain (L234A, L235A, Y349C, T366S, L368A, Y407V; may have H435R, Y436F; EU)) chain (part 1 of 2): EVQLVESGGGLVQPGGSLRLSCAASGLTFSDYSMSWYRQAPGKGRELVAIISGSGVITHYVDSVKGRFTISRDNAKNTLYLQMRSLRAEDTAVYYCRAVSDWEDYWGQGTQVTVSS chain (part 2 of 2): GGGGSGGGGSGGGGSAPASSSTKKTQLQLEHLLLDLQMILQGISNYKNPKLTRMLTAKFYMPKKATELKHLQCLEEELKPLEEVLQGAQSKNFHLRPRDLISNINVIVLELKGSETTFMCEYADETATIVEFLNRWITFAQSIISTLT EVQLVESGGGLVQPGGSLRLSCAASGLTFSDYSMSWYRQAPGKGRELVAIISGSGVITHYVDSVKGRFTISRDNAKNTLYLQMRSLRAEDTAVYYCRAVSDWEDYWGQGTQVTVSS
2. A-N88D-M15 (Fc fusion, not shown: IgG1 hinge (C220S) + Fc Knob chain as in A-N88D; IgG1 hinge (C220S) + Fc Hole chain as in A-N88D) chain (part 1 of 2): EVQLVESGGGLVQPGGSLRLSCAASGLTFSDYSMSWYRQAPGKGRELVAIISGSGGITHYVDSVKGRFTISRDNAKNTLYLQMRSLRAEDTAVYYCRAVSDWEDYWGQGTQVTVSS chain (part 2 of 2): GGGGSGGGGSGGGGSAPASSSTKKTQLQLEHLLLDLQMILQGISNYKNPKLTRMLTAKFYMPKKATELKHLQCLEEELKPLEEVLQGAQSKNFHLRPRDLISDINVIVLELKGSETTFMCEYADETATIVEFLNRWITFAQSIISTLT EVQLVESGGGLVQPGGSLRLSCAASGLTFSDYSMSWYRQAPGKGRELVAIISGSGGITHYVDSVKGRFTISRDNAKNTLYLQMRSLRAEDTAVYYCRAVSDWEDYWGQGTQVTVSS

1. 8.1%
2. 4.1%
